Assay info: Human plasma protein binding
Format: in vitro ADME
Outcome measure: recovery
Answer by giving the amount and then stating its unit.

Request: Would you mind telling me what recovery value was observed for COc1ccc2[nH]cc(CCN3CCCC3)c2c1F [4-F, 5-MeO-PyrT] ?
Response: 81.8%

---

System tested: 5-HT2A (Homo sapiens)
Sequence (P28223 whole entry): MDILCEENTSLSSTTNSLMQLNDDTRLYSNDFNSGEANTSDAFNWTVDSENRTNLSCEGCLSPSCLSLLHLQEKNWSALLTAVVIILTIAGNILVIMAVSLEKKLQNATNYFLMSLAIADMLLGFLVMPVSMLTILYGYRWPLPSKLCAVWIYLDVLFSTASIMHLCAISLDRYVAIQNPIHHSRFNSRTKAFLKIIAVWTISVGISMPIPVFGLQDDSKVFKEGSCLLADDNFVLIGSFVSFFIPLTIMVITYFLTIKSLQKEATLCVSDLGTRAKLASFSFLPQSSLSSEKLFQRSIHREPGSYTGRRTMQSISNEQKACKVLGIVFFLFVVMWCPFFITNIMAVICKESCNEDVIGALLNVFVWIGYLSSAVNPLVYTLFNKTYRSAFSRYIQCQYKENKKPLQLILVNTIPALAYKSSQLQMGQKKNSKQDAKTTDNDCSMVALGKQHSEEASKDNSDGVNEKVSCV
Assay info: cell-based
Measurement parameters: EC50 (nM) Mean BRET Gq-2A, Table 2
Outcome measure: EC50 (nM)
Express it in nM; write the number only.

# example entries with known answers
Smiles	EC50 [nM]
CCCN(CCC)CCc1c[nH]c2ccc(OC)c(F)c12	142
C=CCN(C)CCc1c[nH]c2ccc(OC)c(F)c12	156
CCN(CC)CCc1c[nH]c2ccc(OC)c(F)c12	673
COc1ccc2[nH]cc(CCN3CCCC3)c2c1F	300
CN(C)CCc1c[nH]c2ccc(O)c(F)c12	7.46
CCCN(CC)CCc1c[nH]c2ccc(OC)c(F)c12	155
COc1ccc2[nH]cc(CCN3CC=CC3)c2c1F	120
COc1ccc2[nH]cc(CCN(C)C)c2c1F	86.5
COc1ccc2[nH]cc(CCN(C(C)C)C(C)C)c2c1F	338
COc1ccc2[nH]cc(CCN(C)C(C)C)c2c1F	152

Request: Value wanted: EC50 (5-HT2A (Homo sapiens)) of entry CCN(C)CCc1c[nH]c2ccc(OC)c(F)c12
Response: 99.3

Request: Another: CCCN(CCc1c[nH]c2ccc(OC)c(F)c12)C(C)C
Response: 249

Request: Another: CCCN(C)CCc1c[nH]c2ccc(OC)c(F)c12
Response: 115
